Values from patent US10660967B2

- Test system: A-549 (lung) carcinoma cell line
- assay_notes: Anti-tumor properties, MTT
- Format: cell-based
- conditions: Homo sapiens, A549
observable: IC50 (µM)
Note: unit µM is implicit; provide only the numeric part.

Ask | Fill blank: measured IC50 of the compound COc1cc(/C=C/C(=O)CC(=O)/C=C/c2ccc(OC(=O)CNC(=O)OC(C)(C)C)c(OC)c2)ccc1OC(=O)CNC(=O)OC(C)(C)C is ____.
Reply | 80.9

Ask | Fill blank: measured IC50 of the compound COc1cc(/C=C/C(=O)CC(=O)/C=C/c2ccc(OC(=O)CN)c(OC)c2)ccc1OC(=O)CN.Cl.Cl [HCl-Gly-Cur] is ____.
Reply | 18.9

* * *

As shown below, each of these compounds has a reported Mean edema thickness value.
- Test system: carrageenan induced paw edema
- assay_notes: Anti-inflammatory activity: acute carrageenan induced paw edema in rats
- Format: in vivo, Wister rats
- conditions: 2 h; 10 mg kg^−1 indomethacin mol equivalent, intraperitoneally; mean ± SE
Note: unit mm is implicit; provide only the numeric part.

Solved cases (6 shown):
COc1cc(/C=C/C(=O)CC(=O)/C=C/c2ccc(OC(=O)[C@H](C)NC(=O)OC(C)(C)C)c(OC)c2)ccc1OC(=O)[C@H](C)NC(=O)OC(C)(C)C [Compound 24]
1.84
COc1cc(/C=C/C(=O)CC(=O)/C=C/c2ccc(OC(=O)[C@@H](CCSC)NC(=O)OC(C)(C)C)c(OC)c2)ccc1OC(=O)[C@@H](CCSC)NC(=O)OC(C)(C)C [Compound 29]
0.63
COc1cc(/C=C/C(=O)CC(=O)/C=C/c2ccc(OC(=O)[C@H](CC(C)C)NC(=O)OCc3ccccc3)c(OC)c2)ccc1OC(=O)[C@H](CC(C)C)NC(=O)OCc1ccccc1 [Compound 9]
1.85
COc1cc(/C=C/C(=O)CC(=O)/C=C/c2ccc(OC(=O)[C@@H](N)C(C)C)c(OC)c2)ccc1OC(=O)[C@@H](N)C(C)C.Cl.Cl [Compound 41]
1.04
COc1ccc2c(c1)c(CC(=O)O)c(C)n2C(=O)c1ccc(Cl)cc1 [Compound 2]
0.85
COc1cc(/C=C/C(=O)CC(=O)/C=C/c2ccc(OC(=O)[C@@H](N)CCC(N)=O)c(OC)c2)ccc1OC(=O)[C@@H](N)CCC(N)=O.Cl.Cl [Compound 43]
1.14

Now look at this one.
Ask | Notebook: pull reported Mean edema thickness for carrageenan induced paw edema, entry COc1cc(/C=C/C(=O)CC(=O)/C=C/c2ccc(OC(=O)[C@H](Cc3c[nH]c4ccccc34)NC(=O)OCc3ccccc3)c(OC)c2)ccc1OC(=O)[C@H](Cc1c[nH]c2ccccc12)NC(=O)OCc1ccccc1 [Compound 12]
Reply | 1.48

* * *

- System: carrageenan induced paw edema
- assay_notes: Anti-inflammatory activity: acute carrageenan induced paw edema in rats
- Type: in vivo, Wister rats
- conditions: 2 h; 10 mg kg^−1 indomethacin mol equivalent, intraperitoneally; mean ± SE
Values of Mean edema thickness greater than or equal to 1 mm map to Y; values below map to N.

Check out these entries, answers already filled in.
COc1cc(/C=C/C(=O)CC(=O)/C=C/c2ccc(OC(=O)[C@H](Cc3ccccc3)NC(=O)OC(C)(C)C)c(OC)c2)ccc1OC(=O)[C@H](Cc1ccccc1)NC(=O)OC(C)(C)C [Compound 23]
Y
COc1cc(/C=C/C(=O)CC(=O)/C=C/c2ccc(OC(=O)[C@H](CC(C)C)NC(=O)OCC3c4ccccc4-c4ccccc43)c(OC)c2)ccc1OC(=O)[C@H](CC(C)C)NC(=O)OCC1c2ccccc2-c2ccccc21 [Compound 16]
Y
COc1cc(/C=C/C(=O)CC(=O)/C=C/c2ccc(OC(=O)[C@@H](C)NC(=O)OC(C)(C)C)c(OC)c2)ccc1OC(=O)[C@@H](C)NC(=O)OC(C)(C)C [Compound 26]
Y
COc1cc(/C=C/C(=O)CC(=O)/C=C/c2ccc(O)c(OC)c2)ccc1O [Compound 4]
N

Ask | For this molecule, is measured Mean edema thickness 1 mm or higher? COc1cc(/C=C/C(=O)CC(=O)/C=C/c2ccc(OC(=O)CCNC(=O)OC(C)(C)C)c(OC)c2)ccc1OC(=O)CCNC(=O)OC(C)(C)C [Compound 27]
Reply | Y

* * *

- Test system: gastric mucosa
- assay_notes: Ulcerogenic liability (ulcer index)
- Assay type: in vivo, albino mice
- conditions: sum of the three values; orally, three successive days, 10 mg/kg indomethacin mol equivalent
observable: Ulcer index
I only need the number, thanks.

COc1cc(/C=C/C(=O)CC(=O)/C=C/c2ccc(OC(=O)CN)c(OC)c2)ccc1OC(=O)CN.Cl.Cl [HCl-Gly-Cur]
0

Ask | Fill blank: measured Ulcer index of the compound COc1cc(/C=C/C(=O)CC(=O)/C=C/c2ccc(OC(=O)[C@@H](CCSC)NC(=O)OC(C)(C)C)c(OC)c2)ccc1OC(=O)[C@@H](CCSC)NC(=O)OC(C)(C)C is ____.
Reply | 0

Ask | Fill blank: measured Ulcer index of the compound COc1cc(/C=C/C(=O)CC(=O)/C=C/c2ccc(OC(=O)[C@@H](C)N)c(OC)c2)ccc1OC(=O)[C@@H](C)N.Cl.Cl [HCl-D-Ala-Cur] is ____.
Reply | 0

* * *

As shown below, each of these compounds has a reported Number of animals with ulcer value.
- Test system: gastric mucosa
- assay_notes: Ulcerogenic liability (ulcer index)
- Format: in vivo, albino mice
- conditions: orally, three successive days, 10 mg/kg indomethacin mol equivalent; 6 animals per group

Solved cases (2 shown):
COc1cc(/C=C/C(=O)CC(=O)/C=C/c2ccc(OC(=O)[C@@H](N)CCSC)c(OC)c2)ccc1OC(=O)[C@@H](N)CCSC.Cl.Cl [HCl-L-Met-Cur]
0/6
COc1cc(/C=C/C(=O)CC(=O)/C=C/c2ccc(OC(=O)[C@@H](CCSC)NC(=O)OCc3ccccc3)c(OC)c2)ccc1OC(=O)[C@@H](CCSC)NC(=O)OCc1ccccc1
0/6

Ask | Notebook: pull reported Number of animals with ulcer for gastric mucosa, entry COc1cc(/C=C/C(=O)CC(=O)/C=C/c2ccc(OC(=O)[C@@H](C)N)c(OC)c2)ccc1OC(=O)[C@@H](C)N.Cl.Cl [HCl-D-Ala-Cur]
Reply | 0/6

Ask | Notebook: pull reported Number of animals with ulcer for gastric mucosa, entry COc1cc(/C=C/C(=O)CC(=O)/C=C/c2ccc(OC(=O)[C@H](CCSC)NC(=O)OCc3ccccc3)c(OC)c2)ccc1OC(=O)[C@H](CCSC)NC(=O)OCc1ccccc1
Reply | 2/6

Ask | Notebook: pull reported Number of animals with ulcer for gastric mucosa, entry COc1cc(/C=C/C(=O)CC(=O)/C=C/c2ccc(OC(=O)[C@H](CCSC)NC(=O)OCC3c4ccccc4-c4ccccc43)c(OC)c2)ccc1OC(=O)[C@H](CCSC)NC(=O)OCC1c2ccccc2-c2ccccc21
Reply | 0/6

Ask | Notebook: pull reported Number of animals with ulcer for gastric mucosa, entry COc1cc(/C=C/C(=O)CC(=O)/C=C/c2ccc(OC(=O)C(C)NC(=O)OCc3ccccc3)c(OC)c2)ccc1OC(=O)C(C)NC(=O)OCc1ccccc1 (racemic)
Reply | 2/6

Ask | Notebook: pull reported Number of animals with ulcer for gastric mucosa, entry COc1cc(/C=C/C(=O)CC(=O)/C=C/c2ccc(OC(=O)[C@@H](C)NC(=O)OCc3ccccc3)c(OC)c2)ccc1OC(=O)[C@@H](C)NC(=O)OCc1ccccc1
Reply | 0/6

* * *

- System: gastric mucosa
- assay_notes: Ulcerogenic liability (ulcer index)
- Type: in vivo, albino mice
- conditions: orally, three successive days, 10 mg/kg indomethacin mol equivalent
As shown below, each of these compounds has a reported Average of ulcer number value.
I only need the number, thanks.

Solved cases (2 shown):
COc1cc(/C=C/C(=O)CC(=O)/C=C/c2ccc(OC(=O)CN)c(OC)c2)ccc1OC(=O)CN.Cl.Cl [HCl-Gly-Cur]
0
COc1cc(/C=C/C(=O)CC(=O)/C=C/c2ccc(OC(=O)[C@@H](CCSC)NC(=O)OC(C)(C)C)c(OC)c2)ccc1OC(=O)[C@@H](CCSC)NC(=O)OC(C)(C)C [Boc-D-Met-Cur]
0

Now look at this one.
Ask | Fill blank: measured Average of ulcer number of the compound COc1cc(/C=C/C(=O)CC(=O)/C=C/c2ccc(OC(=O)[C@H](CCSC)NC(=O)OC(C)(C)C)c(OC)c2)ccc1OC(=O)[C@H](CCSC)NC(=O)OC(C)(C)C [Boc-L-Met-Cur] is ____.
Reply | 0

* * *

- Tested on: MCF7 (breast) carcinoma cell line
- assay_notes: Anti-tumor properties, MTT
- Assay type: cell-based
- conditions: Homo sapiens, MCF7; read-out: IC50 (μM) MCF7 (breast)
observable: IC50

Solved cases (2 shown):
COc1cc(/C=C/C(=O)CC(=O)/C=C/c2ccc(OC(=O)[C@@H](NC(=O)OC(C)(C)C)C(C)C)c(OC)c2)ccc1OC(=O)[C@@H](NC(=O)OC(C)(C)C)C(C)C [Boc-L-Val-Cur]
≥ 100 µM
COc1cc(/C=C/C(=O)CC(=O)/C=C/c2ccc(OC(=O)[C@@H](N)C(C)C)c(OC)c2)ccc1OC(=O)[C@@H](N)C(C)C.Cl.Cl [HCl-L-Val-Cur]
10.4 µM

Now look at this one.
Ask | Fill blank: measured IC50 of the compound COc1cc(/C=C/C(=O)CC(=O)/C=C/c2ccc(OC(=O)[C@@H](N)Cc3ccccc3)c(OC)c2)ccc1OC(=O)[C@@H](N)Cc1ccccc1.Cl.Cl [HCl-L-Phe-Cur] is ____.
Reply | 11.5 µM
